Species: Bos taurus
Experimental details: Activation of bovine brain cAMP-dependent protein kinase assessed as transfer of p32 to histone using [gamma-32P]ATP at 10^-7 M relative to cAMP triester
Readout: Ratio

[[record]]
compound = "Nc1ncnc2c1ncn2[C@@H]1O[C@@H]2CO[P@@](=O)(OCc3ccc([N+](=O)[O-])cc3)O[C@H]2[C@H]1O"
observed_measurement = 0

[[record]]
compound = "Nc1ncnc2c1ncn2[C@@H]1O[C@@H]2COP(=O)(OCc3ccccc3)O[C@H]2[C@H]1O (single isomer, unassigned)"
observed_measurement = 0

[[record]]
compound = "CCO[P@@]1(=O)OC[C@H]2O[C@@H](n3cnc4c(N)ncnc43)[C@H](O)[C@@H]2O1"
observed_measurement = 0

[[record]]
compound = "CCO[P@]1(=O)OC[C@H]2O[C@@H](n3cnc4c(N)ncnc43)[C@H](O)[C@@H]2O1"
observed_measurement = 0

[[record]]
compound = "Nc1ncnc2c1ncn2[C@@H]1O[C@@H]2COP(=O)(OCc3ccccc3)O[C@H]2[C@H]1O (stereo not given in full)"
observed_measurement = 0.07

[[record]]
compound = "Nc1ncnc2c1ncn2[C@@H]1O[C@@H]2CO[P@@](=O)(OCc3ccccc3)O[C@H]2[C@H]1O"
observed_measurement = 0.03

[[record]]
compound = "Nc1ncnc2c1ncn2[C@@H]1O[C@@H]2CO[P@](=O)(OCc3ccccc3[N+](=O)[O-])O[C@H]2[C@H]1O"
observed_measurement = 0

[[record]]
compound = "Nc1ncnc2c1ncn2[C@@H]1O[C@@H]2CO[P@@](=O)(OCc3ccccc3[N+](=O)[O-])O[C@H]2[C@H]1O"
observed_measurement = 0

[[record]]
compound = "COP1(=O)OC[C@H]2O[C@@H](n3cnc4c(N)ncnc43)[C@H](O)[C@@H]2O1 (stereo not given in full)"
observed_measurement = 0

[[record]]
compound = "Nc1ncnc2c1ncn2[C@@H]1O[C@@H]2CO[P@](=O)(OCc3ccc([N+](=O)[O-])cc3)O[C@H]2[C@H]1O"
observed_measurement = 0


====

Rf for assorted compounds
Experimental details: Retardation factor, Rf of the compound in ClCH2CH2Cl-EtOH solvent
Readout: Rf

[[record]]
compound = "CCO[P@]1(=O)OC[C@H]2O[C@@H](n3cnc4c(N)ncnc43)[C@H](O)[C@@H]2O1"
observed_measurement = 0.19

[[record]]
compound = "COP1(=O)OC[C@H]2O[C@@H](n3cnc4c(N)ncnc43)[C@H](O)[C@@H]2O1 (stereo partly specified)"
observed_measurement = 0.18

[[record]]
compound = "CCO[P@@]1(=O)OC[C@H]2O[C@@H](n3cnc4c(N)ncnc43)[C@H](O)[C@@H]2O1"
observed_measurement = 0.3

[[record]]
compound = "Nc1ncnc2c1ncn2[C@@H]1O[C@@H]2CO[P@](=O)(OCc3ccc([N+](=O)[O-])cc3)O[C@H]2[C@H]1O"
observed_measurement = 0.34

[[record]]
compound = "Cc1ccc(CO[P@@]2(=O)OC[C@H]3O[C@@H](n4cnc5c(N)ncnc54)[C@H](O)[C@@H]3O2)cc1"
observed_measurement = 0.26

[[record]]
compound = "Nc1ncnc2c1ncn2[C@@H]1O[C@@H]2CO[P@@](=O)(OCc3ccc([N+](=O)[O-])cc3)O[C@H]2[C@H]1O"
observed_measurement = 0.25


====

The following compounds are shown together with reported Rf values.
Experimental details: Retardation factor, Rf of the compound in ClCH2CH2Cl-EtOH solvent
Readout: Rf

[[record]]
compound = "Nc1ncnc2c1ncn2[C@@H]1O[C@@H]2CO[P@@](=O)(OCc3ccccc3[N+](=O)[O-])O[C@H]2[C@H]1O"
observed_measurement = 0.26

[[record]]
compound = "Nc1ncnc2c1ncn2[C@@H]1O[C@@H]2CO[P@@](=O)(OCc3ccccc3)O[C@H]2[C@H]1O"
observed_measurement = 0.25

[[record]]
compound = "Nc1ncnc2c1ncn2[C@@H]1O[C@@H]2COP(=O)(OCc3ccccc3)O[C@H]2[C@H]1O (single isomer, unassigned)"
observed_measurement = 0.39

[[record]]
compound = "Nc1ncnc2c1ncn2[C@@H]1O[C@@H]2CO[P@](=O)(OCc3ccccc3[N+](=O)[O-])O[C@H]2[C@H]1O"
observed_measurement = 0.39

